Reported values of composite z-score for individual entries
# TGT: Dickkopf-related protein 1 (Homo sapiens) (UniProt O94907)
# Sequence (O94907 whole entry, looked up): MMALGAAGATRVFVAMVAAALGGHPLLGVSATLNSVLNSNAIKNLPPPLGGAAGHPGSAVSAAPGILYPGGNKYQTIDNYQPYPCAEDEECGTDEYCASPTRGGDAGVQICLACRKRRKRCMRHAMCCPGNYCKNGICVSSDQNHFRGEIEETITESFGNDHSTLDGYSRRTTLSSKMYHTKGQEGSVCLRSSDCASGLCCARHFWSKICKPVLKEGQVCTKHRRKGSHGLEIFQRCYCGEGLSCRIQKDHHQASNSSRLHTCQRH
# PROCEDURE_SUMMARY: DKK1 binders on small-molecule microarrays, primary screen, biochemical, small-molecule microarray, 635 nm fluorescence scan (AID 1106);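 note: score merges emission near 667 nm with signal to noise over three replicate slides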
# CONDITION_SUMMARY: DKK1 binding, higher = more signal
Lab note: record the figure alone, no unit after it.

[[record]]
compound = "O=C1O[C@H](c2ccccc2)[C@H](c2ccccc2)N2[C@H]1[C@@H](C(=O)O)[C@]1(C(=O)Nc3ccc(C#CC4=CCCCC4)cc31)[C@H]2c1ccc(OCCO)cc1"
obs_value = 0.765


Consider the compound COc1ccc(C#Cc2ccc3c(c2)[C@]2(C(=O)N3)[C@H](c3ccc(O)cc3)N3[C@H](c4ccccc4)[C@H](c4ccccc4)OC(=O)[C@H]3[C@@H]2C(=O)N2CCCCCCC2)cc1 and give its measured composite z-score.
1.61

So what does the record say about composite z-score for COCCOC(=O)N1C(=O)[C@@]2(c3cc(C#CC4=CCCCC4)ccc31)[C@H](C(=O)NC[C@H](O)c1ccccc1)[C@H]1C(=O)O[C@H](c3ccccc3)[C@H](c3ccccc3)N1[C@@H]2c1ccc(O)cc1 ?
1.06

State the recorded composite z-score for this entry: C[C@H]1NC(=O)[C@H](Cc2ccccc2)NC(=O)[C@@]23C(=O)N[C@@H](Cc4ccccc4)C2[C@H](C)[C@@]2(C)O[C@H]2C3/C=C/C/C=C\CNC1=O (stereo not given in full)
0.461

Record request: composite z-score value, item C=CCC(OC(C)=O)[C@@H]1[C@@H](N(Cc2ccc(-c3ccccc3)cc2)C(=O)Cc2ccc(OC)cc2)c2cc(OCCCO)ccc2N1C(=O)c1ccc2ccccc2n1 (stereo not given in full)
0.37
